Form field: Ki (one value per entry).
Target: DOR (delta-opioid receptor) (Rattus norvegicus, UniProt P33533)
Construct: native full-length receptor in rat brain membrane homogenate
Sequence (P33533 whole entry): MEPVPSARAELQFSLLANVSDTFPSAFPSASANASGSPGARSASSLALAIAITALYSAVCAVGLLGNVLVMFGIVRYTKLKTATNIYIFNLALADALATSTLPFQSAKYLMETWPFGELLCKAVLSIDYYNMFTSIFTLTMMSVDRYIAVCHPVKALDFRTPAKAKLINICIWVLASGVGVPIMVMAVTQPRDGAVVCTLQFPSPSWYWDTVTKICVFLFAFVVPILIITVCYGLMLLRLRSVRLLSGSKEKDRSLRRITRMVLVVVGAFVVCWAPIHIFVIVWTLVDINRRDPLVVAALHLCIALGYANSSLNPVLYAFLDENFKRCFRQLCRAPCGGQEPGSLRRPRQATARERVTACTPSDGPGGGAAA
Details: 50 mM Tris-HCl pH 7.4, 35 °C, 45 min; read-out: DOR^a / Ki ± S.E.M.
readout label: Ki (nM)

* O=C1CC[C@@]2(O)[C@H]3Cc4ccc(O)c5c4[C@@]2(CCN3CC(=O)N2CCOCC2)[C@H]1O5 [12a] | 125
* O=C1CC[C@@]2(O)[C@H]3Cc4ccc(O)c5c4[C@@]2(CCN3CC(=O)N2CCCCC2)[C@H]1O5 [12b] | 1140
* Oc1ccc2c3c1O[C@H]1[C@@H](O)C=C[C@H]4[C@@H](C2)N(CCN2CCOCC2)CC[C@@]341 [9a] | 25.3

###

pKi: −log10 of the molar value.
KOR (kappa-opioid receptor) (Cavia porcellus): reported pKi for various molecules.
Sequence (P41144 whole entry): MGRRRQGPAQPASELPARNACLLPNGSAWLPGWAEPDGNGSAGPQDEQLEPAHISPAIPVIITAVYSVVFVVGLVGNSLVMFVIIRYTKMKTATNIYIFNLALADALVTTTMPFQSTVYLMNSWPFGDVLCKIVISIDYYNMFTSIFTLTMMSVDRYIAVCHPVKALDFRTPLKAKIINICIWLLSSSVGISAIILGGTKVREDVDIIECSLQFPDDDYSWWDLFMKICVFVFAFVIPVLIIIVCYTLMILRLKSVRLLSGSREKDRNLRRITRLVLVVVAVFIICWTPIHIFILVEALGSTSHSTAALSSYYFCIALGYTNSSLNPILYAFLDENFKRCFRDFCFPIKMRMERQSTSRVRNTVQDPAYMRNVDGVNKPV
readout label: pKi

- O=C(CN1CC[C@]23c4c5ccc(O)c4O[C@H]2[C@@H](O)C=C[C@H]3[C@H]1C5)N1CCOCC1 [10a]: 8.44
- Oc1ccc2c3c1O[C@H]1[C@@H](O)C=C[C@H]4[C@@H](C2)N(CCN2CCOCC2)CC[C@@]341: 7.69
- Oc1ccc2c3c1O[C@H]1[C@@H](O)C=C[C@H]4[C@@H](C2)N(CCN2CCCC2)CC[C@@]341: 8.16
- Oc1ccc2c3c1O[C@H]1[C@@H](O)C=C[C@H]4[C@@H](C2)N(CCN2CCCCC2)CC[C@@]341: 6.86
- O=C(CN1CC[C@]23c4c5ccc(O)c4O[C@H]2[C@@H](O)C=C[C@H]3[C@H]1C5)N1CCCC1 [10c]: 7.97

###

Form field: pKi (one value per entry).
Target: DOR (delta-opioid receptor) (Rattus norvegicus, UniProt P33533)
Construct: native full-length receptor in rat brain membrane homogenate
Conditions: 50 mM Tris-HCl pH 7.4, 35 °C, 45 min; read-out: DOR^a / Ki ± S.E.M.
pKi: −log10 of the molar value.
readout label: pKi

* O=C(CN1CC[C@]23c4c5ccc(O)c4O[C@H]2[C@@H](O)C=C[C@H]3[C@H]1C5)N1CCCC1 [10c] | 6.08
* Oc1ccc2c3c1O[C@H]1[C@@H](O)C=C[C@H]4[C@@H](C2)N(CCN2CCCCC2)CC[C@@]341 | 7.35
* Oc1ccc2c3c1O[C@H]1[C@@H](O)C=C[C@H]4[C@@H](C2)N(CCN2CCCC2)CC[C@@]341 | 7.47
